Please go through the items and note down their GI50.
test_system: BaF3_EGFRWT cells (Homo sapiens, UniProt P00533)
Sequence (P00533 whole entry, change not shown): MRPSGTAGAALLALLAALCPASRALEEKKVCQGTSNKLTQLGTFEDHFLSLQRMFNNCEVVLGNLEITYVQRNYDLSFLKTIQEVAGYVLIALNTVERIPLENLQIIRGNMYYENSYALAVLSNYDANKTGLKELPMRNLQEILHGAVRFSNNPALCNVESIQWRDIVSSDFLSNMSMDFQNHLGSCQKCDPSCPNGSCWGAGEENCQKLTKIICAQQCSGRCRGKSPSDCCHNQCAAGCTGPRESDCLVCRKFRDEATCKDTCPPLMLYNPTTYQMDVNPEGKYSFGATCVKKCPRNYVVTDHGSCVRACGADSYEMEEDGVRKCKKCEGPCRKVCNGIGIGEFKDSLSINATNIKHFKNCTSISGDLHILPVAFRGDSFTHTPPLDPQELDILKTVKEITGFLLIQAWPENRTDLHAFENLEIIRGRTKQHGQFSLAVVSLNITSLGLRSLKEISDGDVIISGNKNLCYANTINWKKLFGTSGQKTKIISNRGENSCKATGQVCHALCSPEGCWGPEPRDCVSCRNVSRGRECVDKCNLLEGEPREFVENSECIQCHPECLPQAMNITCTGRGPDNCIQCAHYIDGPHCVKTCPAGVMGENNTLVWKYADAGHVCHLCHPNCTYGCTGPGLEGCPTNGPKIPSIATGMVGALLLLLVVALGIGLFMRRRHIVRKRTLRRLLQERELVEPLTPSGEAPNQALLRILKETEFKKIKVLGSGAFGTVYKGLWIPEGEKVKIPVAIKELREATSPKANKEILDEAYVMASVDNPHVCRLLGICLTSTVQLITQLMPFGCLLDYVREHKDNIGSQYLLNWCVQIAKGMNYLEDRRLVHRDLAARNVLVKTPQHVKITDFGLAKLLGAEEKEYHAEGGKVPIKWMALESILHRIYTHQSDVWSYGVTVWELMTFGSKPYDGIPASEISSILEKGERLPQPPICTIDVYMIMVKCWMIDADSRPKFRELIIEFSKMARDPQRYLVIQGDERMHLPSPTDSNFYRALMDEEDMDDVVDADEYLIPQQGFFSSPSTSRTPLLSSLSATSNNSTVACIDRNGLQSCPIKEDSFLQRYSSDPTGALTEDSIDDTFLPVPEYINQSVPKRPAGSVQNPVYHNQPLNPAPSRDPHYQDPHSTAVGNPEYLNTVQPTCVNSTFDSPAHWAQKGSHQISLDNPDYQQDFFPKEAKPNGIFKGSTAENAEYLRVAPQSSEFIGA
assay_name: Cell growth inhibition assay (CellTiterGlo), BaF3_EGFRWT
Assay type: cell-based
condition_info: 3-day treatment, CellTiterGlo, read-out: Cell growth inhibition activity, EGFR WT

GI50 in this record for C=CC(=O)N1CCN(c2ccn3ncnc(Nc4ccc(Oc5ccn6ncnc6c5)c(C)c4)c23)CC1 : 500 to 1500 nM

GI50 in this record for C=CC(=O)NC1CCN(C(=O)c2ccn3ncnc(Nc4ccc(Oc5ccn6ncnc6c5)c(C)c4)c23)C1 (stereo not shown) : 1500 to 5000 nM

GI50 in this record for C=CC(=O)N1CCN(c2ccn3ncnc(Nc4ccc(Oc5ccc6c(c5)ncn6C)c(C)c4)c23)CC1 : 500 to 1500 nM

GI50 in this record for Cc1cc(Nc2ncnn3ccc(C4CCN(C(=O)/C=C/CN5CCCCC5)CC4)c23)ccc1Oc1ccn2ncnc2c1 : 1500 to 5000 nM
